Target: T1, wild-type human p35 polypeptide (human, UniProt P29459 23-219)
T1 construct: Secreted from COS-7 or 293 cells co-transfected with a p40 nucleic acid; also called wt-p35
T1 chain: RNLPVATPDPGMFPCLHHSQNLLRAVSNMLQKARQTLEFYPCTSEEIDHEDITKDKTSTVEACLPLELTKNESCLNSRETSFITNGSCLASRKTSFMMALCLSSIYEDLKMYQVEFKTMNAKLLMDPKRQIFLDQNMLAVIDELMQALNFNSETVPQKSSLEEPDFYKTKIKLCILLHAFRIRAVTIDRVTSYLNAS
Assay: immunoblot with anti-p35 mAB of COS-7 culture medium; ~70 kDa p40/p35 heterodimer band (FIG. 7)
REPORTED_ENDPOINT: binding result

>>> result_value("modified p40 polypeptide B1-81 (ligand) IWELEKNVYVVELDWYPDAPGETVVLACDTPEEDGITWTSDQSSEVLGTGKTLTIHVKEFGDAGQYTCRKGGAVLSQSLLLLHKKEDGIWSTDILKDQKKPKNKIFLKCEAKNYSGRFTCWWLTAISTDLKFTVKSSRGSSDPQGVTCGAVTLSAERVSMDHREYNKYTVECQEGSACPSAEESLPIEVVVDAIHKLKYENYTSRFFIRDIIKPDPPKNLQLRPLKNSRHVEISWEYPDTWSTPHSYFSLTFCVQVQGKNKREKKLFMDQTSAKVTCHKDAKIRVQARDRYHSSSWSEWASVPCS")
"binds"
>>> result_value("modified p40 polypeptide A3-48 (ligand) IWELEKNVYVVELDWYPDAPGEMVVLACDTPEEDGITWTSDQSSEVLGTGKTLTIHVKEFGDAGQYTCHKGGKVLSRSLLLLHKKEDGIWSTDILKDQKEPKNKSFLKCEAKNYSGRFTCWWLTTISTDLTFSVKSSRGSTDPHGVTCGTATLSEDLGEYKKYRVECQEGSACPAAEESLPIEVVLEAVHKLKYENYTSSFFIRDIIKPDPPKNLQLRPLKNSRQVEVNWEYPDTWSTPHSYFSLTFCVQVQGRNKREKKLFMDQTSAKVTCHKDAKIRVQARDRYYSSSWSDWASVSCG")
"binds"

Data origin: patent US20060264615A1
